B1: HDV Ribozyme (parent)
chain: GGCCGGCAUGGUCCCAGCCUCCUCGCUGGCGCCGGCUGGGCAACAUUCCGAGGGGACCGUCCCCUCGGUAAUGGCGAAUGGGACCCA

# Variants of: B1
# ASSAY NOTES: self-cleavage, relative activity (ratio to wild type); higher = more cleavage; co-transcriptional
READOUT LABEL: self-cleavage

## Input Please indicate self-cleavage recorded for A45C G82C
## Output 0.256

## Input Please indicate self-cleavage recorded for C36U A83G
## Output 0.56

## Input Please indicate self-cleavage recorded for G39A C66A
## Output 0.441

## Input Please indicate self-cleavage recorded for C4A C49U
## Output 0.282

## Input Please indicate self-cleavage recorded for C30U A78C
## Output 0.0978

## Input Please indicate self-cleavage recorded for C7G G10A
## Output 0.128

## Input Please indicate self-cleavage recorded for C49G A56G
## Output 0.917

## Input Please indicate self-cleavage recorded for G5C C30G
## Output 0.0875

## Input Please indicate self-cleavage recorded for C32A C63A
## Output 0.232

## Input Please indicate self-cleavage recorded for A42C U79G
## Output 0.151

## Input Please indicate self-cleavage recorded for G55A G80C
## Output 0.138

## Input Please indicate self-cleavage recorded for G67C U79A
## Output 0.935

## Input Please indicate self-cleavage recorded for C14G U37G
## Output 0

## Input Please indicate self-cleavage recorded for C22U C41G
## Output 0.554

## Input Please indicate self-cleavage recorded for G29C G80C
## Output 0.0308

## Input Please indicate self-cleavage recorded for A43U G53U
## Output 0.492

## Input Please indicate self-cleavage recorded for C7A C57A
## Output 0.597

## Input Please indicate self-cleavage recorded for C3U G38U
## Output 0.111

## Input Please indicate self-cleavage recorded for C26A G59U
## Output 1.12

## Input Please indicate self-cleavage recorded for C32G G38C
## Output 0.0462

## Input Please indicate self-cleavage recorded for C32U A43C
## Output 0.196

## Input Please indicate self-cleavage recorded for C14G G40A
## Output 0.623
